Each record here notes measured pKd.
B1: NELF-E aptamer (parent)
chain: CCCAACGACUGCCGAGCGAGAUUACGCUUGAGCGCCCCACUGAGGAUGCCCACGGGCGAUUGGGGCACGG

Variants of: B1
Test: HiTS-RAP
Settings: with NELF-E (Drosophila)
Please express pKd as -log10 of the molar concentration.

Guide cases for pKd, answers given:
mut="G16U A67U" recorded_metric=pKd reported_result=8.00
mut="U10G G62A" recorded_metric=pKd reported_result=7.77
mut="A31G G55A" recorded_metric=pKd reported_result=8.02
mut="G14U G16A" recorded_metric=pKd reported_result=8.17
mut="C13U G16U" recorded_metric=pKd reported_result=8.18

Supply recorded pKd for A5G C13U here.
8.25

Supply recorded pKd for U10G G14U here.
8.22

Supply recorded pKd for A19G C33U here.
8.13

Supply recorded pKd for U23G G45U here.
8.21

Supply recorded pKd for U22G C50A here.
7.72

Supply recorded pKd for C9U G11U here.
8.26

Supply recorded pKd for C12G G56U here.
8.22

Supply recorded pKd for A8U C9U here.
8.18

Supply recorded pKd for C12G G62U here.
7.97

Supply recorded pKd for A8U U47A here.
7.80
